# Tested on: Plasmodium falciparum
# MEASUREMENT_PROTOCOL: Primary screen in NF54 nanoGlo assay, in single point, at 2uM, 72h; a lower Z score goes with more inhibition
# Format: functional, Erythrocyte
# TEST_CONTEXT: timepoint 72 hour
Out of some 150,000 compounds screened, about 540 (0.36%) showed an effect of 50% or more. The sample holds strong results, similar compounds and a random draw of the others, so the mix is not that of the screen.
ENDPOINT: Z score

- COMPOUND: "COC(=O)c1ccccc1NC(=O)C[C@@H]1Nc2cccc3cccc(c23)NC1=O"
  REPORTED: 0.52
- COMPOUND: "Cc1n[nH]c2c1CN(Cc1[nH]cc(C)c(=O)c1C)CC2"
  REPORTED: 1
- COMPOUND: "COc1cccc(N2CCC(N3CCC4(CC3)CNC(=O)O4)CC2)c1"
  REPORTED: 0.35
- COMPOUND: "CCc1nc2ccccc2c(C(=O)N2CCN(c3cc(OC)ncn3)CC2)c1C"
  REPORTED: 1.69
- COMPOUND: "Cc1cc(C(=O)NCc2ccncc2)c(=O)n(C)c1C"
  REPORTED: 1.52
- COMPOUND: "C#CCOCC(O)CN(Cc1c(-c2ccccc2)noc1N1CCC(C)CC1)CC1CCCO1 (stereo unspecified)"
  REPORTED: 1.43
- COMPOUND: "CC(=O)c1ccc(CNc2ncc(Cl)cn2)nc1C"
  REPORTED: 1.6
- COMPOUND: "Cc1cc(=O)[nH]c(-n2nc(C3CC3)cc2NC(=O)C(c2ccccc2)c2ccccc2)n1"
  REPORTED: -11.5
- COMPOUND: "COc1cn(CC(=O)NC2CCN(Cc3ccccc3)CC2)c(CN2CCOCC2)cc1=O"
  REPORTED: -0.83
- COMPOUND: "O=C(C[n+]1ccccc1-c1nc(-c2ccc(Cl)cc2)cs1)c1ccccc1"
  REPORTED: 1
- COMPOUND: "CCOC[C@@H](O)CN(Cc1c(-c2ccccc2)noc1N1CCC(C)CC1)CC1CC1"
  REPORTED: 0.79
- COMPOUND: "Cc1cc(=O)[nH]c(-n2nc(C3CC3)cc2NC(=O)c2ccc(C(C)(C)C)cc2)n1"
  REPORTED: -4.8
- COMPOUND: "COc1nc(NCC2CCN(CC(C)C)CC2)ncc1F"
  REPORTED: 0.24
- COMPOUND: "CC(CCc1cccn1C)NC(=O)NC1CCN(c2cnn(C)c2)C1 (stereo unspecified)"
  REPORTED: 0.08
- COMPOUND: "O=C(N[C@@H](Cn1nccn1)c1ccccc1)c1cc(Br)ccc1Cl"
  REPORTED: -6.89
- COMPOUND: "CN1CCN(C[C@@]2(Cc3ccccc3)CCOC2)CC1"
  REPORTED: 0.56
- COMPOUND: "COCC(=O)Nc1cc(C2CC2)nn1-c1nc(C)cc(=O)[nH]1"
  REPORTED: -0.78
- COMPOUND: "COc1cccc(OC2CN(C[C@H]3COc4ccccc4O3)C2)c1"
  REPORTED: -0.59
- COMPOUND: "COc1cc(=O)n2c(c1C(=O)NC1CCN(Cc3ccccc3)CC1)CCCCC2"
  REPORTED: 0.91
- COMPOUND: "O=C(CN1C=CCC=C1c1nc(-c2ccc(Br)cc2)cs1)c1ccccc1"
  REPORTED: -4.25
- COMPOUND: "CS(=O)(=O)N1C[C@H]2CC[C@@H](C1)N(CC(=O)N1CCc3ccccc31)C2"
  REPORTED: 1.92
- COMPOUND: "CCC1CN(C(=O)NCc2cc(OC)no2)CC(C)O1 (stereo unspecified)"
  REPORTED: 2.2
- COMPOUND: "CCn1ncc(C(CC(=O)c2ccccc2)CC(=O)c2ccccc2)c1C"
  REPORTED: 1.07
- COMPOUND: "N#Cc1c(NC(=O)Nc2cn3ccccc3c2C#N)cn2ccccc12"
  REPORTED: 1.13
- COMPOUND: "O=C(N[C@@H](Cn1nccn1)c1ccccc1)c1ccncc1"
  REPORTED: 1.97
- COMPOUND: "CN1CC[C@H](c2nc3cc(F)ccc3[nH]2)C1"
  REPORTED: 0.12
- COMPOUND: "COc1cccc(C(=O)N2CCN(c3cccnc3)C(=O)C2)c1OC"
  REPORTED: -1.08
- COMPOUND: "CCn1c(CCc2cccc(NC(=O)Nc3ccccc3)c2)nc2ccccc21"
  REPORTED: -0.11
- COMPOUND: "Cn1c(C(=O)Nc2cc(F)ccc2NC(=O)c2ccccn2)cc(Cl)c1Cl"
  REPORTED: 2.71
- COMPOUND: "C[C@H](NC(=O)CNC(C)(C)C)c1ccc(F)cc1F"
  REPORTED: 0.48
- COMPOUND: "CC(C)C(=O)NCCN(C)Cc1ccc(C#N)cc1Br"
  REPORTED: 2.19
- COMPOUND: "CC(C)c1cc(=O)[nH]c(-n2nc(C3CC3)cc2NC(=O)c2ccc(F)cc2)n1"
  REPORTED: -16.95
- COMPOUND: "O=C(CN1C(=O)c2ccccc2C1=O)NC1CCN(Cc2ccccc2)CC1"
  REPORTED: -0.5
- COMPOUND: "COc1ccc(C(=O)CN2C=CCC=C2c2nc(-c3ccc(Cl)cc3)cs2)cc1"
  REPORTED: -6.73
- COMPOUND: "Brc1ccc(-c2csc(Cc3nc(-c4ccc(Br)cc4)cs3)n2)cc1"
  REPORTED: 0.3
- COMPOUND: "COc1cc([C@H](CC(=O)NC2CCN(Cc3ccccc3)CC2)N2Cc3ccccc3C2=O)cc(OC)c1OC"
  REPORTED: -9.85
